Test system: MOLT-4 leukemia
Assay: NCI tumour cell line growth inhibition, 48 h
propertyName: TGI

Below, 2 compounds whose answers are already recorded.
Form field: TGI recorded for COC(=O)c1cc(CNCCc2c[nH]c3ccccc23)on1 with MOLT-4 leukemia (enter value)
> 100 µM

Give TGI (MOLT-4 leukemia) of the following compound: COc1ccc2[nH]c3c(C)c4ccnc(NCCCN(C)CCCNC(=O)NCCCN(C)CCCNc5nccc6c(C)c7[nH]c8ccc(OC)cc8c7c(C)c56)c4c(C)c3c2c1
> 12.4 µM

New cases:
What value of TGI on MOLT-4 leukemia does N#Cc1ccc(NC(=NCC(=O)O)Nc2ccc3ccccc3c2)cc1 have?
> 10 µM

Can you look up TGI on MOLT-4 leukemia for Cn1c(N)cc(=O)nc1N ?
> 100 µM

API: value(readout=TGI, system=MOLT-4 leukemia) for record CN(C)/C=C/c1ccnc2c1C(=O)c1ccccc1C2=O
> 64.1 µM

What reported TGI corresponds to CC1=C2CC3=C(C)C(=O)O[C@H]3C[C@@H](C)[C@@H]2CC1 on MOLT-4 leukemia?
> 100 µM

# get_value(readout= TGI, system= MOLT-4 leukemia) for COC[C@H](Cc1ccccc1)N=Cc1ccccc1
> 100 µM
